Data origin, for the record: patent US6960574B2

- System: receptor labeled by the radioiodinated analogue of 1 (4, [125I]-YLFQPQRF-NH2); neuropeptide FF receptor
- RUN_DESCRIPTION: Competitive radioligand binding against 4 ([125I]Y8F-amide)
- TEST_CONTEXT: mixture-based positional scanning; difference from averaged radioligand displacement of whole library (0); about 80 a.u. = 10-fold change in Ki
Peptide text beside a SMILES is read from it. * marks the point of attachment. Dansyl = CN(C)c1cccc2c(S(=O)(=O)*)cccc12
# key: entry, value: Relative Binding Index (RBI)

MOLECULE | Relative Binding Index (RBI)
CSCC[C@H](NS(=O)(=O)c1cccc2c(N(C)C)cccc12)C(=O)N[C@@H](CCC(=O)O)C(=O)N[C@@H](CCCNC(=N)N)C(N)=O [Dansyl-MER-amide] (Dansyl-Met-Glu-Arg-NH2) | −44 a.u.
CCC(C)C(NC(=O)C(Cc1ccccc1)NS(=O)(=O)c1cccc2c(N(C)C)cccc12)C(=O)NC(CCCNC(=N)N)C(N)=O (stereo not drawn) [Dansyl-FIR-amide] (Dansyl-Phe-Ile-Arg-NH2; configuration not given here) | 16 a.u.
CN(C)c1cccc2c(S(=O)(=O)N[C@@H](CCCNC(=N)N)C(=O)N3CCC[C@H]3C(=O)N[C@@H](CCCNC(=N)N)C(N)=O)cccc12 [Dansyl-RPR-amide] (Dansyl-Arg-Pro-Arg-NH2) | 10 a.u.
